This section presents compounds with their documented melting point values.

Here is how some compounds turned out for melting point.
MOLECULAR_STRING	melting point
CSc1cc(C)nc(SC)c1NC(=O)CN1CCN(CCSc2nc3ccccc3o2)CC1	140 to 141 °C
COCc1ccc2nc(SCCN3CCN(CC(=O)Nc4c(C(C)C)cccc4C(C)C)CC3)oc2c1COC	96 to 97 °C
CCCCCCCN(CCN1CCN(CCSc2nc3cccc(C(F)(F)F)c3o2)CC1)C(=O)Nc1c(C(C)C)cc(O)cc1C(C)C.Cl	95 to 97 °C

# query: melting point of entry `CSc1ncccc1NC(=O)CN1CCN(CCSc2nc3ccccc3o2)CC1.Cl.Cl`
186 to 189 °C

# query: melting point of entry `CCOCCOc1cc(C(C)C)c(NC(=O)CN2CCN(CCCSc3nc4ccccc4o3)CC2)c(C(C)C)c1`
115 to 117 °C

# query: melting point of entry `CC(C)c1cccc(C(C)C)c1NC(=O)CN1CCN(CCSc2nc3cccc([N+](=O)[O-])c3o2)CC1`
153 to 155 °C

# query: melting point of entry `CC(=O)Oc1cc(C(C)C)c(NC(=O)CN2CCN(CCSc3nc4ccccc4o3)CC2)c(C(C)C)c1`
126 to 129 °C

# query: melting point of entry `CCOCCOc1ccc(C(C)C)c(NC(=O)CN2CCN(CCSc3nc4ccccc4o3)CC2)c1C(C)C`
100 to 103 °C

# query: melting point of entry `COC(=O)c1cccc2nc(SCCN3CCN(CC(=O)Nc4c(SC(C)C)cc(C)nc4SC(C)C)CC3)oc12`
60 to 63 °C

# query: melting point of entry `CC(=O)c1cccc2nc(SCCCN3CCCN(CC(=O)Nc4c(C(C)C)cccc4C(C)C)CC3)oc12`
86 to 88 °C

# query: melting point of entry `CC(C)c1cccc(C(C)C)c1NC(=O)CN1CCN(CCCSc2nc3ccccc3s2)CC1`
113 to 115 °C

# query: melting point of entry `CC(C)c1cc(OS(C)(=O)=O)cc(C(C)C)c1NC(=O)CN1CCN(CCSc2nc3ccccc3o2)CC1`
115 to 117 °C

# query: melting point of entry `CCSc1cc(C)nc(SCC)c1NC(=O)CN1CCN(CCSc2nc3ncccc3o2)CC1.O=C(O)/C=C\C(=O)O.O=C(O)/C=C\C(=O)O`
148 to 149 °C

# query: melting point of entry `CCCCCCCN(CCN1CCN(CCSc2nc3c(C)c(Cl)cc(C(C)C)c3o2)CC1)C(=O)Nc1c(C(C)C)cc(O)cc1C(C)C`
138 to 140 °C

# query: melting point of entry `Cc1c(Cl)cc(C(C)C)c2oc(SCCN3CCN(CC(=O)Nc4c(C(C)C)cccc4C(C)C)CC3)nc12`
162 to 163 °C

# query: melting point of entry `CC(C)c1cccc(C(C)C)c1NC(=O)CN1CCN(CCSc2nc3cccc(-c4cc[nH]n4)c3o2)CC1`
181 to 183 °C
